# system.name: rat CB2 (Rattus norvegicus (Rat), UniProt Q9QZN9)
# Sequence (Q9QZN9 whole entry): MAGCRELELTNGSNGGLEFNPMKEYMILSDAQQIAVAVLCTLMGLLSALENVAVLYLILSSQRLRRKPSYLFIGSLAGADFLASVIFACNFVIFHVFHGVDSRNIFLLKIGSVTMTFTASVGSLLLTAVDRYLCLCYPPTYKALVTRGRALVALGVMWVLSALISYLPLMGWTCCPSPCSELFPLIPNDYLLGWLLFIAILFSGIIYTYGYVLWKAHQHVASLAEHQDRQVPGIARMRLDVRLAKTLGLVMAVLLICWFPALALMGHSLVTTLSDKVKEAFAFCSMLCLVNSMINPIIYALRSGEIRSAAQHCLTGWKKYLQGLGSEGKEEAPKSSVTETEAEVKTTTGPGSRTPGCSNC
# assay.remarks: rat CB2 radioligand binding assay ([3H]CP 55,940 competition)
# experimental.parameters: HEK293 membranes, 0.5 nM [3H]CP 55,940; read-out: rat CB2 (Ki)
Quick reference for log10(Ki) among some compounds
Log10 applied to Ki; unit prior to transform: nM.

Input: Using rat CB2 (Rattus norvegicus (Rat), UniProt Q9QZN9) as the test system, report measured log10(Ki) of "CC(C)(C)NOc1ccc(C(F)(F)F)cc1C(=O)/N=c1\sc(C(C)(C)C)nn1CCCC#N" .
Output: 0.08

Input: Using rat CB2 (Rattus norvegicus (Rat), UniProt Q9QZN9) as the test system, report measured log10(Ki) of "CC(C)(C)NOc1ccc(C(F)(F)F)cc1C(=O)/N=c1\sc(C(C)(C)C)nn1CCCCF" .
Output: 0.04

Input: Using rat CB2 (Rattus norvegicus (Rat), UniProt Q9QZN9) as the test system, report measured log10(Ki) of "CCCCn1nc(C(C)(C)C)s/c1=N\C(=O)c1cc(C(F)(F)F)ccc1N(C)N(C)C(=O)OC(C)(C)C" .
Output: 1.54

Input: Using rat CB2 (Rattus norvegicus (Rat), UniProt Q9QZN9) as the test system, report measured log10(Ki) of "C/C(=N\Oc1ccc(C(F)(F)F)cc1C(=O)/N=c1\cc(C(C)(C)C)n(C)n1CC1CC1)C(F)(F)F" .
Output: 2.46

Input: Using rat CB2 (Rattus norvegicus (Rat), UniProt Q9QZN9) as the test system, report measured log10(Ki) of "CCCCn1cc(C(C)(C)C)cc/c1=N\C(=O)c1cc(C(F)(F)F)ccc1ONC(C)(C)C" .
Output: 0.77

Input: Using rat CB2 (Rattus norvegicus (Rat), UniProt Q9QZN9) as the test system, report measured log10(Ki) of "CCCCn1nc(C(C)(C)C)s/c1=N\C(=O)c1cc(C(F)(F)F)ccc1NNC(N)=O" .
Output: 0.72

Input: Using rat CB2 (Rattus norvegicus (Rat), UniProt Q9QZN9) as the test system, report measured log10(Ki) of "CCCCn1nc(C(C)(C)C)s/c1=N\C(=O)c1cc(C(F)(F)F)ccc1ONC(C)C" .
Output: -0.10

Input: Using rat CB2 (Rattus norvegicus (Rat), UniProt Q9QZN9) as the test system, report measured log10(Ki) of "CCCCn1nc(C(C)(C)C)s/c1=N\C(=O)c1cc(C(F)(F)F)ccc1ONC(=O)C(C)(C)C" .
Output: -0.22

Input: Using rat CB2 (Rattus norvegicus (Rat), UniProt Q9QZN9) as the test system, report measured log10(Ki) of "CCCCn1nc(C(C)(C)C)s/c1=N\C(=O)c1cc(C(F)(F)F)ccc1NNC(=O)C(C)(C)C" .
Output: -0.30

Input: Using rat CB2 (Rattus norvegicus (Rat), UniProt Q9QZN9) as the test system, report measured log10(Ki) of "CCCCn1nc(C(C)(C)C)s/c1=N\C(=O)c1cc(C(F)(F)F)ccc1NNCc1ccccc1" .
Output: 1.56

Input: Using rat CB2 (Rattus norvegicus (Rat), UniProt Q9QZN9) as the test system, report measured log10(Ki) of "CC(C)(C)NOc1ccc(C(F)(F)F)cc1C(=O)/N=c1\sc(C(C)(C)C)nn1C[C@H]1CCCO1" .
Output: 0.51

Input: Using rat CB2 (Rattus norvegicus (Rat), UniProt Q9QZN9) as the test system, report measured log10(Ki) of "CCCCn1nc(C(C)(C)C)s/c1=N\C(=O)c1cc(C(F)(F)F)ccc1ON=C(N)c1ccncc1" .
Output: 1.52

Input: Using rat CB2 (Rattus norvegicus (Rat), UniProt Q9QZN9) as the test system, report measured log10(Ki) of "CCCCn1nc(C(C)(C)C)s/c1=N\C(=O)c1cc(C(F)(F)F)ccc1O/N=C(\C)C(C)(C)C" .
Output: 2.45

Input: Using rat CB2 (Rattus norvegicus (Rat), UniProt Q9QZN9) as the test system, report measured log10(Ki) of "CCCCn1nc(C(C)(C)C)s/c1=N\C(=O)c1cc(C(F)(F)F)ccc1ON=C(N)C1CC1" .
Output: -0.05

Input: Using rat CB2 (Rattus norvegicus (Rat), UniProt Q9QZN9) as the test system, report measured log10(Ki) of "CCCCn1nc(C(C)(C)C)s/c1=N\C(=O)c1cc(C(F)(F)F)ccc1O/N=C(\C)C(C)=O" .
Output: 1.04
